Recorded values, source patent US8623429B2.

Experiment: Example 1: stability of bilberry extract anthocyanosides, 4 hours at 37° C., pH 7.0, with/without DHLA or GSH (HPLC)
Type: physicochemical
Conditions: 30 mg dihydrolipoic acid, pH 7.0, 37° C., 4 hours
Measure name: Peak Area, DHLA (4 hours)

- Compound: "COc1cc(-c2[o+]c3cc(O)cc(O)c3cc2O[C@@H]2OC[C@H](O)[C@H](O)[C@H]2O)cc(OC)c1O [Mv-3O-Ara, Malvidin 3-o-arabinoside]"
  Peak Area, DHLA (4 hours): 75.2
- Compound: "OC[C@H]1O[C@@H](Oc2cc3c(O)cc(O)cc3[o+]c2-c2cc(O)c(O)c(O)c2)[C@H](O)[C@@H](O)[C@@H]1O [Dp-3O-Glc, Delphinidin 3-o-glucoside]"
  Peak Area, DHLA (4 hours): 414.8

I = COc1cc(-c2[o+]c3cc(O)cc(O)c3cc2O[C@@H]2O[C@H](CO)[C@@H](O)[C@H](O)[C@H]2O)ccc1O [Pe-3O-Glc, Peonidin 3-o-glucoside]
II = OC[C@H]1O[C@@H](Oc2cc3c(O)cc(O)cc3[o+]c2-c2cc(O)c(O)c(O)c2)[C@H](O)[C@@H](O)[C@H]1O [Dp-3O-Gal, Delphinidin 3-o-galactoside]
III = COc1cc(-c2[o+]c3cc(O)cc(O)c3cc2O[C@@H]2OC[C@H](O)[C@H](O)[C@H]2O)cc(O)c1O.[Cl-] [Pt-3O-Ara, Petunidin 3-o-arabinoside]
Hey, quick one: sort these by Peak Area, DHLA (4 hours), largest value first please. // format: requested-order list of labels
II, I, III
(II: 395.8, I: 139.2, III: 93.7)

====

Assay: Example 5: degradation over time of black currant anthocyanosides at 37° C., pH 7.0, with/without GSH (HPLC)
Assay type: physicochemical
Settings: Blank sample, pH 7.0, 37° C., 0:30 h
Measure name: Peak Area

Some compounds with known Peak Area results, for comparison:
- Compound: "C[C@@H]1O[C@@H](OC[C@H]2O[C@@H](Oc3cc4c(O)cc(O)cc4[o+]c3-c3ccc(O)c(O)c3)[C@H](O)[C@@H](O)[C@@H]2O)[C@H](O)[C@H](O)[C@H]1O [Cn-3-O-Rut, Cyanidin-3-O-rutinoside]"
  Peak Area: 2620.7
- Compound: "C[C@@H]1O[C@@H](OC[C@H]2O[C@@H](Oc3cc4c(O)cc(O)cc4[o+]c3-c3cc(O)c(O)c(O)c3)[C@H](O)[C@@H](O)[C@@H]2O)[C@H](O)[C@H](O)[C@H]1O [Dp-3-O-Rut, Delphinidin-3-O-rutinoside]"
  Peak Area: 3366.5

a = OC[C@H]1O[C@@H](Oc2cc3c(O)cc(O)cc3[o+]c2-c2cc(O)c(O)c(O)c2)[C@H](O)[C@@H](O)[C@@H]1O [Dp-3O-Glc, Delphinidin 3-o-glucoside]
b = OC[C@H]1O[C@@H](Oc2cc3c(O)cc(O)cc3[o+]c2-c2ccc(O)c(O)c2)[C@H](O)[C@@H](O)[C@@H]1O [Cn-3O-Glc, Cyanidin 3-o-glucoside]
Sort a and b by Peak Area descending and give the first. Pick one and reply with its label.
a

====

Experiment: Example 5: degradation over time of black currant anthocyanosides at 37° C., pH 7.0, with/without GSH (HPLC)
Format: physicochemical
Settings: Blank sample, pH 7.0, 37° C., 4:00 h
Measure name: Peak Area

I = C[C@@H]1O[C@@H](OC[C@H]2O[C@@H](Oc3cc4c(O)cc(O)cc4[o+]c3-c3ccc(O)c(O)c3)[C@H](O)[C@@H](O)[C@@H]2O)[C@H](O)[C@H](O)[C@H]1O [Cn-3-O-Rut, Cyanidin-3-O-rutinoside]
II = OC[C@H]1O[C@@H](Oc2cc3c(O)cc(O)cc3[o+]c2-c2ccc(O)c(O)c2)[C@H](O)[C@@H](O)[C@@H]1O [Cn-3O-Glc, Cyanidin 3-o-glucoside]
Sort I and II by Peak Area descending and give the first. Pick one and reply with its label.
I
(I: 1182.9, II: 154.0)

A = C[C@@H]1O[C@@H](OC[C@H]2O[C@@H](Oc3cc4c(O)cc(O)cc4[o+]c3-c3cc(O)c(O)c(O)c3)[C@H](O)[C@@H](O)[C@@H]2O)[C@H](O)[C@H](O)[C@H]1O [Dp-3-O-Rut, Delphinidin-3-O-rutinoside]
B = OC[C@H]1O[C@@H](Oc2cc3c(O)cc(O)cc3[o+]c2-c2cc(O)c(O)c(O)c2)[C@H](O)[C@@H](O)[C@@H]1O [Dp-3O-Glc, Delphinidin 3-o-glucoside]
Returns: the label, A or B , whose recorded Peak Area is the lower number. Pick one and reply with its label.
B
(B: 140.8, A: 626.2)
